Tested on: SEM cells
Protocol details: cell viability relative to DMSO control; higher = less cytotoxic
Stated conditions: RPMI 5 mM glucose + 10% FBS; 48 h; 46.1 µM
Measured attribute: cell viability (%)

Entry smiles | System tested | Measured attribute | Measure unit | Assay value
C\C1=C\N([C@H]2C[C@H](N=[N+]=[N-])[C@@H](CO)O2)C(=O)NC1=O | SEM cells | cell viability | % | 82.2
CC(=O)Nc1ccc([C@H](C)C(=O)Nc2ncc(C(C)C)s2)cc1 | SEM cells | cell viability | % | 4.33
C[N+]1(C)[C@@H]2C[C@@H](OC(=O)[C@H](CO)c3ccccc3)C[C@H]1[C@@H]1O[C@@H]12.[Br-] | SEM cells | cell viability | % | 89.5
NC(CO)(CO)CCc1ccc(Sc2cccc(OCc3ccccc3)c2)cc1Cl | SEM cells | cell viability | % | 7.48
CCN(CC)C(=S)SSC(=S)N(CC)CC | SEM cells | cell viability | % | 0.625

###

Tested on: SEM cells
Protocol details: cell viability relative to DMSO control; higher = less cytotoxic
Stated conditions: HPLM + 10% dialyzed FBS; 48 h; 0.00702 µM
Measured attribute: cell viability (%)

Entry smiles | System tested | Assay value
CN(C/C=C/C#CC(C)(C)C)Cc1cccc2ccccc12 | SEM cells | 93
CN(C)C(=O)c1ccc([S+](=O)([O-])c2ccc(NC(=O)[C@@](C)(O)C(F)(F)F)c(Cl)c2)cc1 | SEM cells | 104
OC(=O)\C1=C\N(C2=CC=C(F)C=C2)C3=C(C=C(F)C(=C3)N4CCNCC4)C1=O | SEM cells | 100
Cc1c(Cn2c(C)nc3c(C(=O)O)cc(N4CCOCC4)cc32)cccc1C(F)(F)F | SEM cells | 109
N=C(N)NC(=O)c1nc(Cl)c(N)nc1N | SEM cells | 120
C[C@@H]1COCCN1C\2=C\C(=O)N\3CC[C@H](N(CC4=CN=CC(=C4)Cl)C3=N2)C(F)(F)F | SEM cells | 91.6
O=C(CO)N1CCC(c2n[nH]c(-c3ccc(Cl)cc3)c2-c2ccncn2)CC1 | SEM cells | 119
Clc1cc(Cl)cc(CNc2ncncc2-c2ccc3c(c2)OCO3)c1 | SEM cells | 95.7
CC(C)Oc1cc(Nc2nc(N[C@@H](C)c3ccc(F)cn3)ncc2Cl)n[nH]1 | SEM cells | 90.3

###

System: SEM cells
Protocol details: cell viability relative to DMSO control; higher = less cytotoxic
Stated conditions: RPMI 5 mM glucose + 10% dialyzed FBS; 48 h; 46.1 µM
# maps each entry to its cell viability

Molecule | cell viability
CC(C)[C@@H](C[S+](=O)([O-])C(C)C)N1C(=O)[C@@](C)(CC(=O)O)C[C@H](c2cccc(Cl)c2)[C@H]1c1ccc(Cl)cc1 | 18.5%
CC(=O)CC(C1=CC=CC=C1)C/2=C(O)/C3=CC=CC=C3OC2=O (centres undefined) | 123%
CC1=CC=CC=C1CN2C(=O)C/3=C(/CCN(CC4=CC=CC=C4)C3)N\5CC\N=C25 | 19.8%
NC(=O)c1ncn([C@@H]2O[C@H](CO)[C@@H](O)[C@H]2O)n1 | 85.7%
O=C1\C=C/C[C@@H]2[C@H]3CCCN4CCC[C@@H](CN12)[C@@H]34 | 92.2%
CCOc1cc(N)c(Cl)cc1C(=O)NCC1CN(Cc2ccc(F)cc2)CCO1 (centres undefined) | 92.5%
CC(=O)O[C@@]1(CC[C@H]2[C@@H]3\C=C(C)/C4=C/C(=O)CC[C@]4(C)[C@H]3CC[C@]12C)C(C)=O | 81.7%
C[C@@]12O[C@@H](C[C@]1(O)CO)n1c3ccccc3c3c4c(c5c6ccccc6n2c5c31)CNC4=O | 5.81%
CNC1[C@@H](O)C(O[C@@H]2C(O)C(O[C@H]3O[C@H]([C@@H](C)NC)CC[C@H]3N)[C@@H](N)C[C@H]2N)OC[C@]1(C)O (some centres undefined) | 91.7%
CC(C)C[C@H](NC(=O)[C@@H](NC(=O)c1cccc(-c2ccccc2)n1)[C@@H](C)O)B(O)O | 3.48%
CC1(C)C(=O)N(CCN2CCC(C(=O)c3ccc(F)cc3)CC2)c2ccccc21 | 101%
CN(C)C(=O)c1ccc([S+](=O)([O-])c2ccc(NC(=O)[C@@](C)(O)C(F)(F)F)c(Cl)c2)cc1 | 20.9%
C[S+](=O)([O-])N(Cc1ccco1)CC(O)Cn1c2ccccc2c2ccccc21 (centres undefined) | 8.62%
COc1cc2c(Nc3ccc(Cl)c(Cl)c3F)ncnc2cc1OC[C@@H]1C[C@@H]2CN(C)C[C@@H]2C1 | 6.25%
O=C(Nc1cccc(Nc2ncc(Br)c(NCCc3cnc[nH]3)n2)c1)N1CCCC1 | 1.39%
CCOC(=O)N1CCN(/[N+]([O-])=N/Oc2ccc([N+](=O)[O-])cc2[N+](=O)[O-])CC1 | 8.98%
Oc1ccc(/C=C/c2cc(O)cc(O)c2)cc1 | 7.98%
C=CC1=C(C(=O)O)N2C(=O)[C@@H](NC(=O)/C(=N\O)c3csc(N)n3)[C@H]2SC1 | 101%
CN1CCC(CC1)COC2=CN=C(N=C2)C3=CC(=CC=C3)CN4/N=C(\C=C/C4=O)C5=CC(=CC=C5)C#N | 105%
